Hello, the source for this data is patent US8119630B2, in case you need it.

Test system: RSV
Experiment: XTT assay, RSV-infected Hep-2 cells
Format: cell-based, Respiratory Syncytial Virus (RSV)
Conditions: human respiratory syncytial virus, 144 h; Table 2, Examples 75 to 82 and 125 to 184; Hep-2 cells infected with RSV, 6 days at 37° C.
Exercise: for every item that follows, state its recorded pIC50.
Value format note: pIC50 is -log10 of concentration (mol/L); just state the number.

// CN(C(=O)Nc1ccccc1F)C1N=C(c2ccccc2)c2ccccc2NC1=O (stereo not shown) : pIC50 value = 5.02

// O=C(Nc1cccc(F)c1)NC1N=C(c2ccccc2)c2ccccc2NC1=O (stereo not shown) : pIC50 value = 5.21

// O=C(NC1N=C(c2ccccc2)c2ccccc2NC1=O)c1ccccc1F (stereo not shown) : pIC50 value = 5.02

// CCOc1ccc2ccccc2c1C(=O)NC1N=C(c2ccccc2)c2ccccc2NC1=O (stereo not shown) : pIC50 value = 5.09

// O=C(Nc1c(F)cccc1F)NC1N=C(c2ccccc2)c2ccccc2NC1=O (stereo not shown) : pIC50 value = 5.03

// "O=C(N[C@H]1N=C(c2ccccc2)c2ccccc2NC1=O)c1cc(Br)c(Br)o1" : pIC50 value = 5.41

// CCOC(=O)NC1N=C(c2ccccc2)c2ccccc2NC1=O (stereo not shown) : pIC50 value = 5.00

// COc1ccc(OC)c(C(=O)NC2N=C(c3ccccc3)c3ccccc3NC2=O)c1 (stereo not shown) : pIC50 value = 5.27

// CS(=O)(=O)c1ccc(C(=O)NC2N=C(c3ccccc3)c3ccccc3NC2=O)cc1 (stereo not shown) : pIC50 value = 5.21

// COc1cc2ccccc2cc1C(=O)N[C@H]1N=C(c2ccccc2)c2ccccc2NC1=O [Example 82b] : pIC50 value = 5.82

// "O=C(N[C@H]1N=C(c2ccccc2)c2ccccc2NC1=O)c1cc2ccccc2o1" : pIC50 value = 5.59

// CCCCNC(=O)NC1N=C(c2ccccc2)c2ccccc2NC1=O (stereo not shown) : pIC50 value = 5.82

// COc1cccc(NC(=O)NC2N=C(c3ccccc3)c3ccccc3NC2=O)c1 (stereo not shown) : pIC50 value = 5.31

// O=C(Nc1cccc(C(F)(F)F)c1)NC1N=C(c2ccccc2)c2ccccc2NC1=O (stereo not shown) : pIC50 value = 5.01

// O=C1Nc2ccccc2C(c2ccccc2)=NC1NC(=O)n1c(=O)[nH]c2ccccc21 (stereo not shown) : pIC50 value = 5.37

// O=C(N[C@H]1N=C(c2ccccc2)c2ccccc2NC1=O)c1ccccc1O [Example 80b] : pIC50 value = 5.70

// CC(C)COC(=O)NC1N=C(c2ccccc2)c2ccccc2NC1=O (stereo not shown) : pIC50 value = 5.01

// COc1cc(S(C)(=O)=O)ccc1C(=O)NC1N=C(c2ccccc2)c2ccccc2NC1=O (stereo not shown) [Example 75a] : pIC50 value = 5.62

// COC(=O)c1ccc(C(=O)NC2N=C(c3ccccc3)c3ccccc3NC2=O)cc1 (stereo not shown) : pIC50 value = 5.19

// CSc1ccccc1C(=O)NC1N=C(c2ccccc2)c2ccccc2NC1=O (stereo not shown) : pIC50 value = 5.03

// "COc1cc(C(F)(F)F)ccc1C(=O)N[C@H]1N=C(c2ccccc2)c2ccccc2NC1=O" : pIC50 value = 5.57

// Cc1cc(C(=O)NC2N=C(c3ccccc3)c3ccccc3NC2=O)oc1C (stereo not shown) : pIC50 value = 6.52
